# System: Escherichia coli
# measurement description: Inhibition of multidrug resistance efflux pump in Escherichia coli assessed as concentration required to reduce levofloxacin MIC by 4-fold by checkerboard assay
Items are presented alongside their recorded INH.
# output: bare number, implied unit µM

These solved cases illustrate the format of a correct answer.
CC1(C)Cc2c(C#N)c(SCCc3ccccc3)nc(N3CCOCC3)c2CO1: 3.1
CC1(C)Cc2c(C#N)c(SCCc3c[nH]c4ccccc34)nc(N3CCOCC3)c2CO1: 12.5
COc1cccc(CCSc2nc(N3CCOCC3)c3c(c2C#N)CC(C)(C)OC3)c1: 2.4
CC1CN(c2nc(SCCc3ccc(NS(C)(=O)=O)cc3)c(C#N)c3c2COC(C)(C)C3)CC(C)O1 (stereo not given): 6.3
COCCN1CCN(c2nc(SCCc3ccccc3F)c(C#N)c3c2COC(C)(C)C3)CC1: 12.5
COc1ccc(CCSc2nc(N3CCOCC3)c3c(c2C#N)CC(C)(C)OC3)cc1: 6.3
COc1ccccc1CCSc1nc(N2CCOCC2)c2c(c1C#N)CC(C)(C)OC2: 3.1
CC1(C)Cc2c(C#N)c(SCCc3cccc(C#N)c3)nc(N3CCOCC3)c2CO1: 12.5
CC(=O)Nc1ccc(CCSc2nc(N3CC(C)OC(C)C3)c3c(c2C#N)CC(C)(C)OC3)cc1 (stereo not given): 0.1

stdin: Fill in the blank: the reported INH of CC1(C)Cc2c(C#N)c(SCCc3cccnc3)nc(N3CCOCC3)c2CO1 is ____.
stdout: 25

Provenance of the data: ChEMBL document CHEMBL3399972
